For each record, write down the corresponding MOR agonist activity, [35S]GTPγS binding to Gαo, FLNA-binding compound as agonist 0.1 μM.
Target Of Assay: mu opiate receptor (MOR) (Rattus norvegicus)
Construct: from tissue; host or cells: rat striatal membrane preparation
Sequence (P33535 whole entry): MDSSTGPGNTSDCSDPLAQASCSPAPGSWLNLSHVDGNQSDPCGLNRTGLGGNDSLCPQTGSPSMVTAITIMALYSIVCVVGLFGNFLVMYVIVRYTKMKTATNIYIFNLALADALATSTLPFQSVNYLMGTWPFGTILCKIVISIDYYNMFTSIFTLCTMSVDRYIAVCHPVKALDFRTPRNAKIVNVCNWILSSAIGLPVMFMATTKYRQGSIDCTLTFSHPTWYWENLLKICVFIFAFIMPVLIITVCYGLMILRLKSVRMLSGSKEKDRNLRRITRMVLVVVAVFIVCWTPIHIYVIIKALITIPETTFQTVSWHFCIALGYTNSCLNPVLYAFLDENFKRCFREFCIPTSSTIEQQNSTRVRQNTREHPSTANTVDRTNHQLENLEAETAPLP
Assay: MOR agonist activity using [35S]GTPγS binding assay in striatal membranes
Assay type: biochemical
Measurement Parameters: 0.1 μM compound, striatal membranes
Protocol: To assess the mu opiate receptor (MOR) agonist activity of positive compounds from the FLNA screening, compounds were tested in a [^35S]GTPγS binding assay using striatal membranes. […] The immunocomplexes so formed were collected by incubation at 25° C. for 30 minutes with 40 μl of agarose-conjugated protein A/G beads and centrifugation at 5,000×g at 4° C. for 5 minutes. […] The radioactivity in the suspension was determined by liquid scintillation spectrometry. […]
One number for each entry, in %.

Examples with answers:
In [3]: df
Out[3]:
                                   compound  result_unit  reported
0  CCCCc1ccc(S(=O)(=O)N2CCC3(CC2)OCCN3S(=O)(=O)c2ccc(CCCC)cc2)cc1 [Compound C0030]            %     150.3
1  COc1ccc(NC(=O)N2CCC3(CC2)OCCN3S(=O)(=O)c2ccc(OC)cc2)cc1 [Compound C0041]            %     186.1
2  COc1ccc(S(=O)(=O)N2CCC3(CC2)OCCN3S(=O)(=O)c2ccc(OC)c(OC)c2)cc1OC [Compound C0049]            %     106.6
3  CC(=O)c1ccc(S(=O)(=O)N2CCC3(CC2)NC(=O)C(Cc2cnc[nH]2)N3S(=O)(=O)c2ccc(C(C)=O)cc2)cc1 (stereo not shown) [Compound C0084M]            %     163.1
4  O=S(=O)(c1ccc(F)cc1)N1CCC2(CC1)OCCN2S(=O)(=O)c1ccc(F)cc1 [Compound C0029]            %     175.4
5  COc1ccc(S(=O)(=O)N2CCC3(OCCN3S(=O)(=O)c3ccc(OC)cc3)C3CCCCC32)cc1 (stereo not shown) [Compound C0144M]            %     186.3

Next item in the queue.
In: Using known records, supply MOR agonist activity, [35S]GTPγS binding to Gαo, FLNA-binding compound as agonist 0.1 μM for O=S(=O)(c1ccc(Br)cc1Br)N1CCC2(CC1)OCCN2S(=O)(=O)c1ccc(Br)cc1Br [Compound C0070]
Out: 165.6
